Measured values drawn from PubChem BioAssay AID1852 for this set.

- experiment-notes: TNF-a-driven NF-kB reporter inhibitors, primary screen, selectivity assay for NOD1/NOD2 signaling inhibitor project, cell-based, HEK293T NF-kB-Luc, luminescence (AID 1852)
- conditions-used: TNF-a induced, 14 h, at 4 µM
About 1,100 (44%) of roughly 2,500 compounds were called active.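 How the source made its calls: active means inhibition above 50% at 4 µM in the single-point screen; inactive means inhibition of 50% or less.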 The set was probably picked from earlier hits. The list shows a part of the results.
Form entry, call: pick from Yes = active, No = inactive

{"columns": ["compound", "discrete-label"],
 "data": [
  ["CCOC(=O)/C=C/C(=O)Nc1cccc([N+](=O)[O-])c1", "Yes"],
  ["Cc1cccc(Cc2cnc(N3C(=N)SC(C)C3=O)s2)c1 (centres undefined)", "Yes"],
  ["COc1ccc(-n2cc(-c3ccccc3)c3c(N4CCOCC4)ncnc32)cc1", "No"],
  ["O=C(N/C(=C/c1ccc([N+](=O)[O-])cc1)C(=O)N1CCOCC1)c1ccco1", "No"],
  ["O=C(NCc1cccnc1)/C(=C\\c1ccc(-c2cccc(Cl)c2)o1)S(=O)(=O)c1ccccc1", "Yes"]
]}

Name the outcome recorded for "Cc1cccnc1Nc1nc(-c2ccccn2)cs1" in the assay. Yes

Also, "Cc1cc([N+](=O)[O-])ccc1-c1ccc(/C=N/NC(=O)c2ccc(Br)o2)o1" please. No

Also check "COc1ccc(/C=N/NC(=O)c2ccc(Br)o2)cc1Cn1cc([N+](=O)[O-])cn1" No

Please answer likewise for "COc1ccc(-n2cnc3ccccc32)cc1" Yes

Item: "CCOc1ccc(NC(=O)Nc2nc(SCC)ns2)cc1" No

Could you do the same for "Fc1ccc(Sc2nc(-c3ccccc3)nnc2C(F)(F)F)cc1" , please? No

Next: "CCOc1ccc(-c2csc3ncn(-c4ccc(OC)cc4)c(=O)c23)cc1" No

Item: "CCN(c1ccccc1)S(=O)(=O)c1ccc(NC(=S)NC(=O)c2cccs2)cc1" No

Can you check "CCN1/C(=C/C=C/C=C/C=C/c2sc3ccccc3[n+]2CC)Sc2ccccc21" next? Yes

Also check "Cc1nc2cc(NC(=O)c3ccc([N+](=O)[O-])s3)ccc2s1" No

And the next one, "O=C(OCn1ncc(Br)c(Br)c1=O)c1ccccc1Cl" ? Yes

# iterate: "c1ccc2c(c1)oc1c(Nc3ccc(CN4CCOCC4)cc3)ncnc12" No

Please do the same for "CC(=O)Nc1ccc2nc(NC(=O)c3ccc([N+](=O)[O-])s3)sc2c1" as well. No

Would you kindly repeat that for "COc1cc(F)ccc1CN1CCC(C(=O)Nc2ccc(Oc3ccccc3)nc2)CC1" ? Yes

# iterate: "COc1ccccc1CNc1ncnc2sccc12" Yes

====

- experiment-notes: TNF-a-driven NF-kB reporter inhibitors, primary screen, selectivity assay for NOD1/NOD2 signaling inhibitor project, cell-based, HEK293T NF-kB-Luc, luminescence (AID 1852)
- conditions-used: TNF-a induced, 14 h, at 4 µM, stronger effect = higher value
The campaign covered roughly 2,500 compounds. About 1,100 (44%) were called active. So high a share suggests a set chosen from earlier hits. The list shows a part of the results.
Each entry below lists one item and its recorded inhibition value.

{"columns": ["compound", "inhibition"],
 "data": [
  ["CC(=O)Nc1nnc(S(=O)(=O)N2CCN(c3ccc(Cl)cc3[N+](=O)[O-])CC2)s1", "-2.9% (inactive)"],
  ["CC(=O)N1CCc2cc(S(=O)(=O)NCc3ccc(C)cc3)ccc21", "26.3% (inactive)"],
  ["Cc1cnc(NC(=O)C2CC(=O)N(c3cccc(Cl)c3)C2)s1 (stereo not given)", "92.4% (active)"],
  ["CC(=O)N1CCCc2cc(S(=O)(=O)N3CCCC(C(=O)N4CCN(c5cc(C)ccc5C)CC4)C3)ccc21 (stereo not given)", "45.4% (inactive)"],
  ["COc1ccccc1N1CCN(C(=O)C2CCCN(S(=O)(=O)c3ccc4c(c3)oc(=O)n4C)C2)CC1 (stereo not given)", "19.5% (inactive)"],
  ["CCCCCn1c(SCCc2ccccc2)nc2c1c(=O)[nH]c(=O)n2C", "31.3% (inactive)"],
  ["Cn1c(=O)[nH]c(=O)c2c1nc(N1CCC(Cc3ccccc3)CC1)n2Cc1ccccc1", "41.2% (inactive)"],
  ["CCC1C(=NO)C(CC)C(c2ccccc2)NC1c1ccccc1 (stereo not given)", "32.5% (inactive)"]
]}

Give its inhibition value. Item: Cc1csc(NC(=O)C2CC(=O)N(c3ccc(C)c(C)c3)C2)n1 (stereo not given) -11.9% (inactive)

Similarly, "CNc1nc(-c2ccc3c(c2)CCN3S(=O)(=O)c2ccccc2)c(C)s1" ? 79.2% (active)

====

- experiment-notes: TNF-a-driven NF-kB reporter inhibitors, primary screen, selectivity assay for NOD1/NOD2 signaling inhibitor project, cell-based, HEK293T NF-kB-Luc, luminescence (AID 1852)
- conditions-used: TNF-a induced, 14 h, at 4 µM
About 1,100 (44%) of roughly 2,500 compounds were called active.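 How the source made its calls: active means inhibition above 50% at 4 µM in the single-point screen; inactive means inhibition of 50% or less.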 So high a share suggests a set chosen from earlier hits. The list shows a part of the results.
Outcome field: choose from t for active, f for inactive

A selection of reference data follows.
{"columns": ["structure-as-smiles", "discrete-label"],
 "data": [
  ["COc1cccc(/C=C2/SC(=S)N(CCCC(=O)Nc3ccc(O)cc3)C2=O)c1", "f"],
  ["O=C(O)CCCN1C(=O)/C(=C\\C(Cl)=C\\c2ccccc2)SC1=S", "t"],
  ["O=[N+]([O-])c1ccc(Oc2cccc(F)c2)c2ccncc12", "f"],
  ["CC(/C=C1\\SC(=S)N(c2ccc(C(=O)O)cc2)C1=O)=C\\c1ccccc1", "f"]
]}

Alright, here's another compound for you.
Hi, sorry to bother you, what did the test record for "O=[N+]([O-])c1ccc(Oc2ccc(F)cc2)c2ccncc12" ? t

====

- experiment-notes: TNF-a-driven NF-kB reporter inhibitors, primary screen, selectivity assay for NOD1/NOD2 signaling inhibitor project, cell-based, HEK293T NF-kB-Luc, luminescence (AID 1852)
- conditions-used: TNF-a induced, 14 h, at 4 µM, stronger effect = higher value
Among all 2,500 compounds or so, about 1,100 (44%) were called active. The set was probably picked from earlier hits. This is one part of the list.
Assign class by inhibition: not lower than 20% means Met; lower than 20% means Not met.

Observe how each entry below is paired with its result.
{"columns": ["compound", "discrete-label"],
 "data": [
  ["Cc1c(O)ccc(/C=N/Nc2nc(-c3cccnc3)nc3ccccc23)c1O", "Not met"],
  ["O=C(CSc1nc2ccccc2c(=O)[nH]1)Nc1ccccc1C(F)(F)F", "Met"],
  ["COCCC1CCCCN1C(=O)c1cc(COc2ccc(-n3cncn3)cc2)on1 (stereo not given)", "Not met"],
  ["FC(F)(F)c1cc(Sc2ccccc2)nc(-c2ccccn2)n1", "Not met"],
  ["O=C(CSc1nnnn1C1CC2CCC1C2)Nc1ccnc2ccccc12 (stereo not given)", "Met"]
]}

I'd appreciate it if you could say whether "COc1ccc2[nH]c(C(=O)N/N=C/c3ccc(O)cc3O)cc2c1" has inhibition at least equal to 20%. Met

Please answer likewise for "O=CN1CCN(c2c([N+](=O)[O-])c(=O)oc3ccccc23)CC1" Not met

And the next one, "C[C@@H](C(=O)Nc1ccc2ccccc2c1)[C@@H]1C[C@@]1(C)[C@@H](NC(=O)c1cnccn1)c1ccccc1" ? Not met

"Oc1ccc(/C=N/Nc2nc(-c3ccccc3F)nc3ccccc23)c(O)c1" ? Met

And for "Oc1ccc(/C=N/Nc2nccnc2Cl)c(O)c1" ? Met

====

- experiment-notes: TNF-a-driven NF-kB reporter inhibitors, primary screen, selectivity assay for NOD1/NOD2 signaling inhibitor project, cell-based, HEK293T NF-kB-Luc, luminescence (AID 1852)
- conditions-used: TNF-a induced, 14 h, at 4 µM, stronger effect = higher value
Among all 2,500 compounds or so, about 1,100 (44%) were called active. So high a share suggests a set chosen from earlier hits. The list shows a part of the results.
Use 50% as the dividing line for inhibition, with the line itself on the Condition met side and lower values as Condition not met.

{"columns": ["compound", "discrete-label"],
 "data": [
  ["COc1cccc(C(=O)/C=C/Nc2ccc(S(=O)(=O)Nc3cccc(C(C)=O)c3)cc2)c1", "Condition not met"],
  ["NC(=O)c1sc2nc3c(c(-c4ccccc4)c2c1N)CCC3", "Condition met"],
  ["CC(NC(=S)NC1CCCCC1)c1ccc(C(C)(C)C)cc1 (stereo unspecified)", "Condition not met"],
  ["COc1cc(CNc2ccc3[nH]c(=O)[nH]c3c2)cc(Br)c1OCc1ccc(F)cc1", "Condition not met"]
]}

Does "NC(=O)c1cc2ccncc2c2ccccc12" have a reported inhibition of at least 50%? Condition met

Entry "COc1cc(CNc2ccc3[nH]c(=O)[nH]c3c2)ccc1OCc1ccccc1C" please Condition not met

Check "O=C(O)c1ccc(S(=O)(=O)/N=C2\C=C(Nc3ccccc3F)C(=O)c3ccccc32)cc1" too. Condition met

Likewise for "Cc1ccccc1NC1=C/C(=N\S(=O)(=O)c2ccc(C(=O)O)cc2)c2ccccc2C1=O" ? Condition met

What do you have for "Cc1ccc(-c2c3c(nc4sc(C(N)=O)c(N)c24)CCC3)cc1" ? Condition met

Let us now turn to "NC(=O)c1sc2nc3c(c(-c4ccco4)c2c1N)CCCC3" Condition met

Can you check "Nc1cc2ccncc2c2ccccc12" next? Condition met
